Data provenance is paper PMC5608272.

testedTarget: cGAS (Homo sapiens, UniProt Q8N884)
experimentalDetails: Cy5-cGAMP fluorescence polarization assay of cGAS activity
Format: biochemical
Design: Amino acids 2-522 of human MB21D1 (Uniprot ID: Q8N884); made in house; host or cells: Spodoptera frugiperda Sf-9 (baculovirus)
Sequence (Q8N884 2-522): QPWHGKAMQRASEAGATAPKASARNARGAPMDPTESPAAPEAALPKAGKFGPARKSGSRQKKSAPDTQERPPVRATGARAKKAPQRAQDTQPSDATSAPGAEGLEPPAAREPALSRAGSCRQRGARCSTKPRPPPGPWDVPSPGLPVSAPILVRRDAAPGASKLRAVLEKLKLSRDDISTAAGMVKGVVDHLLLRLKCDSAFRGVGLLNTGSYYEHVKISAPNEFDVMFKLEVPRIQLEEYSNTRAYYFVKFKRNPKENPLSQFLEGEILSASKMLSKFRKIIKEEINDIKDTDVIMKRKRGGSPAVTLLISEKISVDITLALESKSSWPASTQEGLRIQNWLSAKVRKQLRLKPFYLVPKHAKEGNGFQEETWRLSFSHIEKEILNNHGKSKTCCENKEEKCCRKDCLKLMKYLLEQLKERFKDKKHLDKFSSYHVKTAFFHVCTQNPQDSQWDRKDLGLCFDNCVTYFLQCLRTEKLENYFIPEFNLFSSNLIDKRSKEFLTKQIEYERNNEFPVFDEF
readoutKind: IC50 (µM)

lineNotation: O=C(O)CNC(=O)c1cnn2c(=O)cc(-c3ccccc3)[nH]c12
measurement: 10.6

###

Listing of recorded Kd by entry.
testedTarget: UniProtKB Q8N884
experimentalDetails: SPR binding to immobilized cGAS
conditionSet: absence of activating dsDNA; 4 °C
Sequence (Q8N884 whole entry): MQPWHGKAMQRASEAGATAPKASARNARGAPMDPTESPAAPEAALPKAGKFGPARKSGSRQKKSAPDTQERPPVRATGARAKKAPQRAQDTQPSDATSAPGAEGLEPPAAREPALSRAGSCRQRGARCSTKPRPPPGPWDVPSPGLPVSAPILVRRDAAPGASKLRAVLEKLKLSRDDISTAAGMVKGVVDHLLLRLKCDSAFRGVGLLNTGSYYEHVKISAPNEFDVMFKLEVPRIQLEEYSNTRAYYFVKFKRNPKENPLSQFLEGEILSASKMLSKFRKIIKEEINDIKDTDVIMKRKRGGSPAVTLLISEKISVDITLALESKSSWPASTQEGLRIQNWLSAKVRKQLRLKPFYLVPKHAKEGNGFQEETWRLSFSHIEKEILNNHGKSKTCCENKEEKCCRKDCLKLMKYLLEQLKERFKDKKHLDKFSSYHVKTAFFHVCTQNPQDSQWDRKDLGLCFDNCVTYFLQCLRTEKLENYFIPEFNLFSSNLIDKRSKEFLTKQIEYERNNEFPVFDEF

lineNotation: C[C@@H](CO)NC(=O)c1cnn2c(=O)cc(-c3ccccc3)[nH]c12
unitOfMeasure: µM
Kd: 2.7

lineNotation: O=C(O)CNC(=O)c1cnn2c(=O)cc(-c3ccccc3)[nH]c12
unitOfMeasure: µM
Kd: 6.7

lineNotation: CNC(=O)c1cnn2c(=O)cc(-c3ccccc3)[nH]c12
unitOfMeasure: µM
Kd: 78

lineNotation: Oc1cc(-c2ccccc2)nc2nnnn12
unitOfMeasure: µM
Kd: 171

lineNotation: O=C(NCCO)c1cnn2c(=O)cc(-c3ccccc3)[nH]c12
unitOfMeasure: µM
Kd: 12.5

###

testedTarget: Human cGAS (aa 2–522) (Homo sapiens)
Construct: Amino acids 2-522 of human MB21D1 (Uniprot ID: Q8N884); made in house; host or cells: Spodoptera frugiperda Sf-9 (baculovirus)
Sequence (Q8N884 2-522): as the sequence (Q8N884 2-522) above
experimentalDetails: cGAS activity mass spectrometry assay (cGAMP production by LC-MS)
Assay type: biochemical
Description: cGAS activity was measured in buffer (10 mM Hepes, 140 mM NaCl, 0.01% Tween-20, 5 mM MgCl2, pH 7.5) containing 1 mM ATP, 0.3 mM GTP, 100 nM ISD DNA (45 bp dsDNA), and 100 nM cGAS in the presence or absence of test compounds. […] The reaction was incubated for 30 minutes at 37°C and stopped with the addition of 50 mM EDTA. […]
readoutKind: IC50 (µM)

lineNotation: O=C(O)CNC(=O)c1cnn2c(=O)cc(-c3ccccc3)[nH]c12
readoutKind: IC50
unitOfMeasure: µM
measurement: 21

###

testedTarget: cGAS (Homo sapiens)
experimentalDetails: Cy5-cGAMP fluorescence polarization assay of cGAS activity
Type: biochemical
Design: Amino acids 2-522 of human MB21D1 (Uniprot ID: Q8N884); made in house; host or cells: Spodoptera frugiperda Sf-9 (baculovirus)
conditionSet: 1 mM ATP, 0.3 mM GTP, 100 nM ISD DNA, 100 nM cGAS; read-out: FP IC50
pIC50: −log10 of the molar value.
pIC50 values by entry

lineNotation: C[C@@H](CO)NC(=O)c1cnn2c(=O)cc(-c3ccccc3)[nH]c12
testedTarget: cGAS (Homo sapiens)
pIC50: 4.76

lineNotation: O=C(NCCO)c1cnn2c(=O)cc(-c3ccccc3)[nH]c12
testedTarget: cGAS (Homo sapiens)
pIC50: 4.82

lineNotation: CNC(=O)c1cnn2c(=O)cc(-c3ccccc3)[nH]c12
testedTarget: cGAS (Homo sapiens)
pIC50: 3.90

###

testedTarget: cGAS (Homo sapiens, UniProt Q8N884)
experimentalDetails: Cy5-cGAMP fluorescence polarization assay of cGAS activity
Type: biochemical
Design: Amino acids 2-522 of human MB21D1 (Uniprot ID: Q8N884); made in house; host or cells: Spodoptera frugiperda Sf-9 (baculovirus)
conditionSet: text summary of Fig 3, spans MS and FP assay values; read-out: IC50, inhibition of cGAS functional activity
pIC50: −log10 of the molar value.

lineNotation: CNC(=O)c1cnn2c(=O)cc(-c3ccccc3)[nH]c12
pIC50: 3.90 to 4.16
